Experiment: inhibitors of GR-EGFP nuclear translocation, primary screen, dynein cargo transport inhibitor project, imaging, high-content, 3617.4 mouse cells (AID 1381)
Details: measured here: cytoplasmic GR-EGFP intensity, at 20 µM, stronger effect = higher value, stimulated with dexamethasone, 1 µM
Out of some 220,000 compounds screened, about 1,000 (0.45%) were called active. The entries come from a sample that favours actives as a whole.
Class Satisfied: z-score at least -0.2. Class Not satisfied: z-score below -0.2.

In plain terms: is recorded z-score at least -0.2 for COc1cc(CO)c(C2(CO)CCCC2)cc1OC ?
Satisfied

In plain terms: is recorded z-score at least -0.2 for Clc1ccc(CN2CCN(/N=C/c3cccnc3)CC2)cc1 ?
Not satisfied

In plain terms: is recorded z-score at least -0.2 for C=CCOC(=O)C1=C(C)OC(N)=C(C#N)C1c1ccc(F)cc1 (stereo unspecified) ?
Satisfied

In plain terms: is recorded z-score at least -0.2 for CC1(C)CCSC(/C=C/c2ccccc2)=N1 ?
Satisfied

In plain terms: is recorded z-score at least -0.2 for CCC(=O)Nc1cccc(C2=NOC3(C2)C[C@@H](C(N)=O)N(C(=O)c2cc([N+](=O)[O-])cc([N+](=O)[O-])c2C)C3)c1 (stereo partly specified) ?
Not satisfied

In plain terms: is recorded z-score at least -0.2 for O=C(Nc1ccccc1Cl)c1ccc2nsnc2c1 ?
Not satisfied

In plain terms: is recorded z-score at least -0.2 for O=[N+]([O-])c1cc(S(=O)(=O)CCCN2CCOCC2)ccc1F ?
Satisfied

In plain terms: is recorded z-score at least -0.2 for Nc1nnn(CC(=O)N/N=C/c2ccc(O)cc2)n1 ?
Not satisfied

In plain terms: is recorded z-score at least -0.2 for CCOC(=O)C1=C(CC)OC(N)=C(C#N)C1c1ccc(F)cc1F (stereo unspecified) ?
Satisfied

In plain terms: is recorded z-score at least -0.2 for COCCn1c(C)cc(C(=O)COC(=O)/C=C/c2cccc(OC)c2)c1C ?
Not satisfied

In plain terms: is recorded z-score at least -0.2 for O=C(CSc1nnc(-c2cccnc2)n1Cc1ccco1)c1ccc(Cl)cc1 ?
Not satisfied

In plain terms: is recorded z-score at least -0.2 for Cc1ccc(S(=O)(=O)N(C)c2ccc(OCC(=O)NC3=NCCS3)cc2)cc1 ?
Satisfied

In plain terms: is recorded z-score at least -0.2 for CCN(CC)c1ccc2cc(C(=O)O)c(=O)oc2c1 ?
Not satisfied

In plain terms: is recorded z-score at least -0.2 for O=C(Nc1ccccc1Cl)/C(Cl)=C(\Cl)S(=O)c1ccccc1 (stereo unspecified) ?
Satisfied

In plain terms: is recorded z-score at least -0.2 for COc1ccc(/C=N/N=C2/C(=O)Nc3ccccc32)cc1O ?
Satisfied

In plain terms: is recorded z-score at least -0.2 for CCCc1nc2oc3c(=O)[nH]cnc3c2c2c1COC(C)(C)C2 ?
Not satisfied

In plain terms: is recorded z-score at least -0.2 for CC1(C)COC(c2cccn2Cc2ccccc2Cl)=N1 ?
Satisfied

In plain terms: is recorded z-score at least -0.2 for O=Cc1cn(Cc2ccccc2)nc1-c1cccnc1 ?
Not satisfied

In plain terms: is recorded z-score at least -0.2 for COc1ccc(CCc2nnc(CCC(=O)NCc3cnn(-c4ccccc4C)c3)o2)cc1 ?
Satisfied

In plain terms: is recorded z-score at least -0.2 for Fc1ccccc1/C=C1\CCCC2=C1Nc1ncnn1C2c1ccccc1F (stereo unspecified) ?
Satisfied

In plain terms: is recorded z-score at least -0.2 for Cc1nnc(SCCCCSc2nnc(C)c(=O)[nH]2)[nH]c1=O ?
Not satisfied

In plain terms: is recorded z-score at least -0.2 for Cc1c(C(=O)Nc2ccccc2)sc2nc3n(c(=O)c12)CCCCC3 ?
Not satisfied

In plain terms: is recorded z-score at least -0.2 for C=CCOC(=O)C1=C[C@@H](c2ccccc2)C[C@@H](OCc2ccc(CO)cc2)O1 ?
Not satisfied

In plain terms: is recorded z-score at least -0.2 for COC(=O)C(C(=O)Nc1cccc(Cl)c1C)C1CCCC1 (stereo unspecified) ?
Satisfied

In plain terms: is recorded z-score at least -0.2 for O=C1/C(=C\c2cccnc2)CN(Cc2ccccc2)C/C1=C\c1cccnc1 ?
Satisfied

In plain terms: is recorded z-score at least -0.2 for CS(=O)(=O)c1ccc(Cl)c(NC(=O)Nc2ccccc2)c1 ?
Not satisfied

In plain terms: is recorded z-score at least -0.2 for COc1ccc(NC(=S)Nc2ccccc2Cl)cn1 ?
Not satisfied

In plain terms: is recorded z-score at least -0.2 for COC(=O)c1cc(C(=O)N(Cc2ccccc2)c2ccccn2)cc([N+](=O)[O-])c1 ?
Not satisfied

In plain terms: is recorded z-score at least -0.2 for CCNC(=S)Nc1ccc(OC(F)(F)F)cc1 ?
Not satisfied

In plain terms: is recorded z-score at least -0.2 for CCOc1ccc(Br)cc1S(=O)(=O)Nc1cccc(S(=O)(=O)N(CC)CC)c1 ?
Satisfied

In plain terms: is recorded z-score at least -0.2 for Clc1cccc(-c2nc3nc4ccccc4nc3n2Cc2ccco2)c1 ?
Satisfied

In plain terms: is recorded z-score at least -0.2 for O=[N+]([O-])c1ccc(NCCCN2CCOCC2)c(Cl)c1 ?
Satisfied

In plain terms: is recorded z-score at least -0.2 for Cc1ccnc(N2CCN(C(=O)CSc3nc4ccccc4nc3N3CCCCC3)CC2)c1 ?
Satisfied

In plain terms: is recorded z-score at least -0.2 for Cc1ccc(C(C)NC(=O)Cn2nc(C)c([N+](=O)[O-])c2C)cc1 (stereo unspecified) ?
Not satisfied

In plain terms: is recorded z-score at least -0.2 for O=C(NCc1ccccc1)c1ccc(CNc2c(N3CCCC3)c(=O)c2=O)cc1 ?
Satisfied

In plain terms: is recorded z-score at least -0.2 for CC(=O)NC1(c2ccc(F)cc2)CCN(C(=O)c2c(F)cccc2F)CC1 ?
Not satisfied

In plain terms: is recorded z-score at least -0.2 for CCOC(=O)C(=Cc1ccccc1OC)C(=O)OCC ?
Satisfied

In plain terms: is recorded z-score at least -0.2 for COc1ccc(CS(=O)/C(Cl)=C(/Cl)C(=O)Nc2ccc(OC)nc2)cc1 (stereo unspecified) ?
Satisfied

In plain terms: is recorded z-score at least -0.2 for Cc1cc(=O)oc2c1c(C)nn2-c1ccc(Cl)cc1 ?
Not satisfied

In plain terms: is recorded z-score at least -0.2 for CC(=O)Cn1ncc(N2CCOCC2)c(Br)c1=O ?
Not satisfied

In plain terms: is recorded z-score at least -0.2 for CC1C/C(=N/NC(=O)c2cccs2)CC(C)(C)C1 (stereo unspecified) ?
Satisfied

In plain terms: is recorded z-score at least -0.2 for CCN(CC)Cc1csc2ccc(Br)cc12 ?
Satisfied

In plain terms: is recorded z-score at least -0.2 for COc1ccc(CCNC(=O)c2ccc(CS(=O)(=O)c3ccc(Br)cc3)o2)cc1OC ?
Not satisfied

In plain terms: is recorded z-score at least -0.2 for COCCN(CCOC)C(=S)Nc1ccccc1Cl ?
Satisfied
